Catalogue of ADCC cytotoxic activity (51Cr release) against MCF7 values
Target of assay: T1, human CAPRIN-1 expressed on the surface of human cancer cells (human, UniProt Q14444 2-709); further: test concentration or dose not given here
T1 sequence: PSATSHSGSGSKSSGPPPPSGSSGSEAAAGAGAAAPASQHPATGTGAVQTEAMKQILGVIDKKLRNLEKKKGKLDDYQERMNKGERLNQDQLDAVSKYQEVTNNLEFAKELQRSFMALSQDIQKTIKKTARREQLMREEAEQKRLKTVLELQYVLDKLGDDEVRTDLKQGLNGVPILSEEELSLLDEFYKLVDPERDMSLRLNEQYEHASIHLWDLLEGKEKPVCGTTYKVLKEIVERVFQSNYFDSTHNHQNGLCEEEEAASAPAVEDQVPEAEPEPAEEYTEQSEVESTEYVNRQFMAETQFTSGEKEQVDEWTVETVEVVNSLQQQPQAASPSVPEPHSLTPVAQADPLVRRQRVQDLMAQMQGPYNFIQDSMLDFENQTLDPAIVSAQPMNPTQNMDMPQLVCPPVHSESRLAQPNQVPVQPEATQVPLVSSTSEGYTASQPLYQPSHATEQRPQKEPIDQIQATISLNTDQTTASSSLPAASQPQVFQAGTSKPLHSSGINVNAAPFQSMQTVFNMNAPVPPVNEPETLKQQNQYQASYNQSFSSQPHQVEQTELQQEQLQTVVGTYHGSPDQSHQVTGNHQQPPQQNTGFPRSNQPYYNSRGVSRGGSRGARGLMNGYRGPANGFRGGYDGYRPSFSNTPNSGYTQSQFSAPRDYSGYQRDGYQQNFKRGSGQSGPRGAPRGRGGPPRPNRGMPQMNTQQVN
Experimental protocol: cell-based or functional assay
Recorded endpoint: ADCC cytotoxic activity (51Cr release) against MCF7

binder="human-mouse chimeric comparative monoclonal antibody 4 (antibody, human IgG1, kappa, V domains shown) VH: EVQLHQFGAELVKPGASVKISCKASGYTFTDYNMDWVKQSHGKSLEWIGDINPNYDSTSYNQKFKGKATLTVDKSSSTAYMELRSLTSEDTAVYYCARSRSYDYEGFAYWGQGTLVTVSA VL: SGDRVSLSCRASQSISNYLHWYQQKSHESPRLLIKYASQSISGIPSRFSGSGSGTDFTLSINSVETEDFGMYFCQQSNSWPYTFGAGTKLEIKQ" result="< 5%"
binder="human-mouse chimeric monoclonal antibody #2 (antibody, human IgG1, kappa, V domains shown) VH: GGGLVKPGGSLKLSCAASGFTFSSYGMSWVRQTPEKRLEWVATISSGGSYTYYPDSVKGRFTISRDNAKNTLYLQMSSLRSEDTAMYYCASLASYYFDYWGQGTTLTVSS VL: GARCDVQMIQSPSSLSASLGDIVTMTCQASQGTSINLNWFQQKPGKAPKLLIYGASSLEDGVPSRFSGSCFGTDFTLTISSLEDEDMATYFCLQHSYLPPLTFGAGTKLELKR" result="≥ 32%"
binder="human-chicken chimeric monoclonal antibody #3 (antibody, V domains shown) VH: AVTLDESGGGLQTPGGGLSLVCKGSGFTFSSFGMFWVRQAPGKGLEFVASISDNGRSTYYGSAVKGRATISRDDGQSTVRLQLNNLRAEDTGTYYCAKNAYVGRGCCFSYSIDAWGHGTEVIVS VL: ALTQPASVSVNPGETVKITCSGGGSSSDAYGWYQQKSPGSAPVTLIYNGSNRPSHIPSRFSGSTSGSTNTLTITGVQVEDEAIYFCGSTDTSTSVGIFGAGTTLTV" result="≥ 30%"
